All figures here come from ChEMBL document CHEMBL1136226.

Item-by-item account of Ki
- target.desc: 5-hydroxytryptamine receptor 1A (Rattus norvegicus, UniProt P19327)
- Sequence (P19327 whole entry): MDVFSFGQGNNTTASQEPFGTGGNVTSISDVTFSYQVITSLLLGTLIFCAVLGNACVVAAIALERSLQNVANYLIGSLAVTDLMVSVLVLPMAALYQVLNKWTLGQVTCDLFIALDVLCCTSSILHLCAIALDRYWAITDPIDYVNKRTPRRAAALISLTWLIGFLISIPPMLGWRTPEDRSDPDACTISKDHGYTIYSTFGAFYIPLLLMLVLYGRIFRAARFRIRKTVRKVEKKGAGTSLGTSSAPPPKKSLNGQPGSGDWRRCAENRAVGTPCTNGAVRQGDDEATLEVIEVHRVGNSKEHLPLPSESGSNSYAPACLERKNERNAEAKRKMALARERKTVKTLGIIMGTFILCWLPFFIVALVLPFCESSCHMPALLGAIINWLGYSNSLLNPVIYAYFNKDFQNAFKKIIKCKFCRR
- test: Displacement of [3H]8-OH-DPAT from 5-hydroxytryptamine 1A receptor of rat cerebral cortex membranes
- Type: cell membranes, Membrane
parameter: Ki

[[record]]
compound = "CCOc1ccccc1N1CCN(Cc2nc3c(C(=O)NC4CN5CCC4CC5)cccc3[nH]2)CC1 (stereo not given)"
reported_value = "18 nM"

[[record]]
compound = "CC(C)Oc1ccccc1N1CCN(Cc2nc3cccc(C(=O)NC4CN5CCC4CC5)c3[nH]2)CC1 (stereo not given)"
reported_value = "34.4 nM"

[[record]]
compound = "COc1ccccc1N1CCN(Cc2nc3cccc(C(=O)NC4CN5CCC4CC5)c3[nH]2)CC1 (stereo not given)"
reported_value = "150 nM"

[[record]]
compound = "O=C(NC1CN2CCC1CC2)c1cccc2[nH]c(CN3CCN(c4cccc(Cl)c4)CC3)nc12 (stereo not given)"
reported_value = "> 10000 nM"

[[record]]
compound = "CCCCOc1ccccc1N1CCN(Cc2nc3c(C(=O)NC4CN5CCC4CC5)cccc3[nH]2)CC1 (stereo not given)"
reported_value = "45.9 nM"

